System: 233499-124-R-J3-PDC complex spheroid growth;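 note: spheroids exposed to agents for seven days before reading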
measurement protocol: Anticancer human tumor 233499-124-R-J3-PDC patient-derived colon adenocarcinoma cell line growth inhibition [AhR]
condition parameters: second compound 3.16 µM; first compound 0.03 µM; stronger effect = lower value
# viability, T/C listing for each entry below
measurement type: viability, T/C (%)

1) CCc1c2c(nc3ccc(O)cc13)-c1cc3c(c(=O)n1C2)COC(=O)[C@]3(O)CC + Cc1ccccc1N=Nc1ccc(NC(=O)c2ccnn2C)c(C)c1 ... 86.9
2) CCN(c1cc(-c2ccc(CN3CCOCC3)cc2)cc(C(=O)NCc2c(C)cc(C)[nH]c2=O)c1C)C1CCOCC1 + Cc1cncc(-c2nc(NCCc3c[nH]c4ccccc34)c3ncn(C(C)C)c3n2)c1 ... 76.9
3) CC(C)CC(NC(=O)C(Cc1ccccc1)NC(=O)c1cnccn1)B(O)O (stereo unspecified) + CC(CO)NC(=O)c1cc(-c2ccc(Cl)cc2)nn(-c2cnn(C)c2)c1=O ... 0.1
4) CC(C)CC(NC(=O)C(Cc1ccccc1)NC(=O)c1cnccn1)B(O)O (stereo unspecified) + Cc1cncc(-c2nc(NCCc3c[nH]c4ccccc34)c3ncn(C(C)C)c3n2)c1 ... 0.11
5) O=C(C=Cn1cnc(-c2cc(C(F)(F)F)cc(C(F)(F)F)c2)n1)NNc1cnccn1 + Cc1ccccc1N=Nc1ccc(NC(=O)c2ccnn2C)c(C)c1 ... 99.1
6) O=C(C=Cn1cnc(-c2cc(C(F)(F)F)cc(C(F)(F)F)c2)n1)NNc1cnccn1 + CC(CO)NC(=O)c1cc(-c2ccc(Cl)cc2)nn(-c2cnn(C)c2)c1=O ... 97
